Record form. Attribute: pIC50. Fill in for each entry.
molecular target: Secreted mono- and diacylglycerol lipase LIP1 (Malassezia globosa (strain ATCC MYA-4612 / CBS 7966)(Dandruff-associated fungus), UniProt A8PUY1); experiment: Inhibition of Malassezia globosa CBS 7966 LIP1 using pNPA substrate
Sequence (A8PUY1 whole entry): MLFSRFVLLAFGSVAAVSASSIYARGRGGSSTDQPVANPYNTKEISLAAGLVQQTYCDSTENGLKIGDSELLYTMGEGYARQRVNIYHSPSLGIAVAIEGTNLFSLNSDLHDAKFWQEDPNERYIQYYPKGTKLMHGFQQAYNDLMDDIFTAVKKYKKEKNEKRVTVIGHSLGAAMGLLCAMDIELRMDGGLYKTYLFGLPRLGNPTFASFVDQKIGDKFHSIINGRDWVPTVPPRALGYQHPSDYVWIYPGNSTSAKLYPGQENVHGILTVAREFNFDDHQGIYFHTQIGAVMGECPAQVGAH
Expect pIC50 as a plain number equal to -log10 of the molar concentration.

Consider the compound O=C(O)c1ccc(=S)n(CC(=O)c2ccccc2)c1 . State its measured pIC50. 4.01

Using known records, supply pIC50 for Cc1ccc(C(=O)Oc2ccc3ccc(O)cc3c2)cc1 4.09

Please give measured pIC50 of the following entry: O=C(NCCCCCCNC(=O)ON=C1CCCCC1)ON=C1CCCCC1 4.12

Give the measured pIC50 for O=C1c2ccccc2CN1CCSC(=S)N1CCCCCC1 4.70

The reported measurements were obtained from ChEMBL document CHEMBL3608237.
